Tested on: SK-OV-3 ovarian
Assay: NCI-60 one-dose screen, 48 h
Conditions: 10 µM
Experimental: Growth inhibition of the SK-OV-3 human tumor cell line is measured as a screen for anti-cancer activity. Cells are grown in 96 well plates and exposed to the test compound for 48 hours. Compounds are tested at a single concentration, which is 10^-5 M for most compounds. The reported endpoint is percent growth (GI% or GIPRCNT), where numbers from 0 - 100% represent growth inhibition, and numbers from -100% - 0 represent cell death. For example, a value of 40 represents 60% growth inhibition. […]
Compounds without any hit were thinned out: in the full panel of roughly 83,000, 20% have a hit. Activity calls are given as the source filed them. The calls were made as follows: active = growth percent below 10; inactive = the rest.
Outcomes: true (active), false (inactive)

Compound: O=C(Nc1nc2ccc([N+](=O)[O-])cc2s1)Nc1cc(Cl)ccc1I
Assigned label: true
//
Compound: CN1CCN(c2ccc(C(=O)/C=C/c3cc(Br)ccc3F)cc2)CC1
Assigned label: false
//
Compound: COc1ccc(CN2[C@H](C(=O)NCc3ccc(C(=O)NO)cc3)Cc3c([nH]c4ccccc34)[C@H]2C2CC2)cc1
Assigned label: false
//
Compound: CC(=O)c1ccc(NC(=O)NCn2c(=O)[nH]c3ccccc3c2=O)cc1
Assigned label: false
//
Compound: COc1ccc(-c2cc(C(=O)N=Nc3c(O)[nH]c4ccc(F)cc34)c3ccccc3n2)cc1
Assigned label: false
//
Compound: CN1CCN(Cc2ccc(NC(=O)c3cncc(C#Cc4cnc5ccc(N[C@H]6CCOC6)nn45)c3)cc2C(F)(F)F)CC1
Assigned label: true
//
Compound: COc1cc(/C=C/C(=O)c2ccc(NC(=O)CN3C(=O)NC(C)(c4ccccc4)C3=O)cc2)cc(OC)c1OC (configuration not stated)
Assigned label: false
//
Compound: Nc1cccnc1/C=N/NC(=S)NCCNC(=O)c1ccc(-n2nc(-c3ccccc3O)nc2-c2ccccc2O)cc1
Assigned label: false
//
Compound: CCCCCc1ccc(S(=O)(=O)N(C(C)=O)c2cc(-c3csc(N(C)C(C)=O)n3)ccc2N2CCN(C)CC2)cc1
Assigned label: false
//
Compound: O=c1c2ccccc2nc(COc2ccccc2)n1/N=C/c1ccc(N2CCOCC2)cc1
Assigned label: false
//
Compound: N#Cc1ccc(-c2nn(-c3ccc(C(=O)O)cc3)cc2CNc2ccc(Oc3ccccc3)cc2)cc1
Assigned label: false
//
Compound: CO[C@@H]1CSS[C@H]1Cn1nc(-c2ccc(Oc3ccccc3)cc2)c2c(N)ncnc21
Assigned label: false
//
Compound: Cc1ccc(S(=O)(=O)c2nc(-c3ccccc3)oc2S(=O)(=O)CC(=O)N2CCCC2)cc1
Assigned label: false
//
Compound: O=C(CNc1nc(-c2ccccc2)cs1)Nc1cccc([N+](=O)[O-])c1
Assigned label: true
//
Compound: Cc1ccc(CSc2nc(Cl)c(C#N)c(-c3ccc(F)cc3)n2)cc1
Assigned label: false
//
Compound: O=C(Cn1cc(CSc2nnc3oc4ccccc4n23)nn1)Nc1ccc(Br)cc1
Assigned label: false
//
Compound: COc1ccc(/C=C/C(=O)c2ccc(S(=O)(=O)NCCNc3nc(Nc4ccc(F)cc4)nc(N(C)C)n3)cc2)cc1
Assigned label: false
//
Compound: CC(=O)c1cc(C(=O)N2c3ccccc3Sc3ccccc32)n2ccc(C)cc12
Assigned label: false
//
Compound: Cc1ccc(-c2cc(-c3cc4ccccc4nc3Cl)[nH]c(=O)n2)cc1
Assigned label: false
//
Compound: O=C(Nc1ccc(I)cc1F)c1cc(-c2ccc(F)cc2F)ccc1O
Assigned label: true
//
Compound: COc1ccc2cc([C@H](C)C(=O)NCc3ccccc3)ccc2c1
Assigned label: false
//
Compound: Cc1ccc(-c2cc(C(=O)N=Nc3c(O)[nH]c4ccccc34)c3ccccc3n2)cc1
Assigned label: false
//
Compound: O=C(Nc1cc(Cl)cc(Cl)c1)Nc1cc(Cl)cc(Cl)c1
Assigned label: true
//
Compound: Cc1cc2nc3c4ccccc4n(CCO)c3nc2cc1C
Assigned label: false
//
Compound: Cc1ccc(CSc2nc(-c3ccc(F)cc3)c(C#N)c(=O)[nH]2)cc1
Assigned label: false
//
Compound: O=c1[nH]n(C(=S)N/N=C/c2ccc(F)cc2)c(=O)c2ccccc12
Assigned label: false
//
Compound: O=c1c2ccccc2nc(COc2ccccc2)n1/N=C/c1ccc(N2CCCC2)cc1
Assigned label: false
//
Compound: C/C(=C\c1ccc(O)cc1O)c1ccc2ccc(O)cc2[o+]1
Assigned label: false
//
Compound: CCCCCCCCCCCCCCCCCCCC(=O)NCCc1c[nH]c2ccc(OC(=O)NOCCOCCOCCOCCOCCOCCOCCOCCOCCOCCOCCOCCOCCOCCOCCOCCOCCOCCOCCOCCOCCOCCOC)cc12
Assigned label: true
//
Compound: C=C1CC[C@H](C(=C)C)[C@H]2C=C(C)C(=O)C3=C(C(=O)[C@@](C)(O)C3)[C@H]12
Assigned label: true
//
Compound: COc1cc(Cn2c(C(F)(F)F)cc3c(Cl)ncnc32)ccn1
Assigned label: false
//
Compound: COc1ccc(C(C)=C(c2ccc(OCCCN(C)C)cc2)c2ccc(OCCCN(C)C)cc2)cc1
Assigned label: true
//
Compound: O=C(c1ccc(Cl)cc1)C1[C@H](c2ccccc2Br)[C@@H](c2ccccc2)NC12C(=O)Nc1ccccc12 (some centres not stated)
Assigned label: false
//
Compound: O=C(CSc1nnc(-c2c[nH]c3ccccc23)n1-c1ccccc1)Nc1ccc(C(=O)/C=C/c2ccc(Br)cc2)cc1
Assigned label: false
//
Compound: O=C(CN1CCN(c2ncnc3c2cnn3-c2ccccc2)CC1)Nc1nncs1
Assigned label: false
//
Compound: Cc1ccc(C(C)C)cc1NC(=O)c1ccccc1N(C)C
Assigned label: false
//
Compound: C=C(C)[C@@H]1CC[C@]2(COP(=O)(OCC)OCC)CC[C@]3(C)[C@H](CC[C@@H]4[C@@](C)(CCCN)[C@H](C(=C)C)CC[C@]43C)[C@@H]12
Assigned label: false

---

Test system: OVCAR-8 ovarian
Assay: NCI-60 one-dose screen, 48 h (100 = growth as untreated, 0 = no growth, -100 = all killed)
Conditions: 10 µM
Compounds without any hit were thinned out: in the full panel of roughly 83,000, 20% have a hit.
# Lookup of reported growth keyed by entry

Compound: COc1ccc(/C=C/C(=O)c2ccc(NC(=O)CN3C(=O)NC(C)(c4ccccc4)C3=O)cc2)cc1 (centres undefined)
Unit descriptor: %
growth: 93.3
//
Compound: O=C(Cc1ccc2c(c1)CN(C1CCC(=O)NC1=O)C2=O)NCCc1ccccc1 (centres undefined)
Unit descriptor: %
growth: 4.26
//
Compound: Cc1ccc(C(=O)CSc2nnc(-c3c[nH]c4ccccc34)n2-c2ccccc2)cc1
Unit descriptor: %
growth: 11.3
//
Compound: Cc1ccc(NC(=O)NCn2c(=O)[nH]c3ccccc3c2=O)cc1
Unit descriptor: %
growth: 39.9
//
Compound: Cc1ccc(/C=C/C(=O)c2ccc(NC(=O)CSc3nnc(-c4c[nH]c5ccccc45)n3-c3ccccc3)cc2)c(C)c1
Unit descriptor: %
growth: 1.17
//
Compound: N#Cc1c(NC(=O)c2ccc(C(F)(F)F)c(Cl)c2)sc2c1CCC(=O)C2
Unit descriptor: %
growth: -34
//
Compound: Cc1ccc(CNC(=O)Cc2ccc3c(c2)CN(C2CCC(=O)NC2=O)C3=O)cc1 (centres undefined)
Unit descriptor: %
growth: 1.57
//
Compound: O=c1cc(-c2ccccc2)oc2cc(OCCCNCc3ccccc3)cc(O)c12
Unit descriptor: %
growth: -90.5
//
Compound: COc1ccc2[nH]c(O)c(N=NC(=O)c3cc(-c4ccc(C)cc4)nc4ccccc34)c2c1
Unit descriptor: %
growth: 88.5

---

System: MALME-3M melanoma
Assay: NCI-60 one-dose screen, 48 h
Details: 10 µM
The panel holds about 83,000 compounds, 20% with a hit somewhere; the sample as a whole holds those more often. Active and inactive are the calls of the source. Rule for the calls: active = growth percent below 10; inactive = the rest.
Classes used: Yes for active, No for inactive

Compound: CCCCCc1ccc(S(=O)(=O)Nc2cc(-c3csc(N(C)C(C)=O)n3)ccc2N2CCN(C)CC2)cc1
Assigned label: Yes

Compound: O=C(Nc1ccc(F)c(Cl)c1)c1cc(-c2ccc(F)cc2F)ccc1O
Assigned label: Yes

Compound: COc1ccc(N2N=C(c3ccc4c(c3)OCCO4)CC2c2cccc(NC(=O)CCCNS(=O)(=O)c3ccc(F)cc3)c2)cc1 (stereo not drawn)
Assigned label: No

Compound: COc1ccc2[nH]c(O)c(N=NC(=O)COc3ccc(NC(=O)Nc4ccc(Cl)cc4)cc3)c2c1
Assigned label: Yes

Compound: COC(=O)C(Cc1ccc(O)c(O)c1)NC(=O)C(CSC/C=C(\C)CCCC(C)CCCC(C)CCCC(C)C)NC(C)=O (stereo not drawn)
Assigned label: No

Compound: Cc1ccc(NC(=O)c2ccc(-n3c(=O)[nH]c4ccccc4c3=O)cc2)cc1
Assigned label: No

Compound: CO[C@@H]1CSSC1Cn1nc(-c2ccc(Oc3ccccc3)cc2)c2c(N)ncnc21 (stereo partly drawn)
Assigned label: Yes

Compound: COc1ccccc1[C@H]1C(C(=O)c2ccc(O)cc2)C2(N[C@@H]1c1ccccc1)C(=O)Nc1ccc(Br)cc12 (stereo partly drawn)
Assigned label: No

Values from PubChem BioAssay (NCI)
